test system: GH4C1 cells; test: Release and degradation of cell-bound [125I-Tyr1]SRIF; assay type: cell-based, rat; conditions: Table V conditions; compound in dissociation medium, 60 min at 37C
ENDPOINT_NAME: effect on receptor-mediated degradation of [125I-Tyr1]SRIF

{"columns": ["COMPOUND", "RESULT"],
 "data": [
  ["Cc1ccc(S(=O)(=O)N[C@@H](Cc2ccccc2)C(=O)CCl)cc1", "substantially inhibited"],
  ["O=C(O)c1cc[c]([Hg][Cl])cc1 [chloromercuribenzoate]", "substantially inhibited"]
]}

====

test system: GH4C1 cells; assay: Release and degradation of cell-bound [125I-Tyr1]SRIF; type: cell-based, rat; conditions: Table V conditions; compound in dissociation medium, 60 min at 37C
ENDPOINT_NAME: effect on receptor-mediated degradation of [125I-Tyr1]SRIF

{"columns": ["COMPOUND", "RESULT"],
 "data": [
  ["NC(=O)CI [iodoacetamide]", "substantially inhibited"],
  ["CC(C)C[C@H](NP(=O)(O)O[C@@H]1O[C@@H](C)[C@H](O)[C@@H](O)[C@H]1O)C(=O)N[C@@H](Cc1c[nH]c2ccccc12)C(=O)O [Phosphoramidon, phosphoramidon]", "substantially inhibited"],
  ["COc1ccc(C[C@H](N)C(=O)N[C@H]2[C@@H](O)[C@H](n3cnc4c(N(C)C)ncnc43)O[C@@H]2CO)cc1 [puromycin]", "same small effect"],
  ["Cc1ccc(S(=O)(=O)NC(CCCCN)C(=O)CCl)cc1 [TLCK, Na-p-tosyl-L-lysine chloromethyl ketone]", "same small effect"]
]}

Origin of values: paper PMC2114115
